- System: Bacillus subtilis
- Assay Procedure: cleaved RNA product abundance (RNA/gDNA barcode ratio) relative to median wild-type variant (ratio to wild type); higher = more accumulation of the downstream cleavage product
- Test Settings: experiment (reporter, strain, medium): exp 8a: truncated aprE reporter, strain BJT201 with 2% xylose (RNase J1 expressed); cleavage site: glnRA (positions -5 to +31 mutated)
cleaved RNA product abundance vs 0.4: at or above is criterion met, below is criterion not met.

Look over these answered cases.
CGACATGTCCCGCTTCTTTCATTAATCCGTTAGCAAATGTTTTGCTATATACATTAACCTTTTAAGAGGAGGAAT ... criterion met
CGACATGTCCCGCTTCTTTCATTAATCCGTTAGCAACTGTTTTGTTAAATACATTTACCTTTTAAGAGGAGGAAT ... criterion met
CGACATGTCCCGCTTCTTTCATTAATCCGTTAGCAACTGTTTTGCTATATAAATTTACGTTTTAAGAGGAGGAAT ... criterion met

Query block: cleaved RNA product abundance >= 0.4 for `CGACATGTCCCGCTTCTTTCATTAATCCGTTAGCAAATGTTTTGTTATATACATTTACCTTTTAAGAGGAGGAAT` ?
Result block: criterion met

Query block: Moving on to `CGACATGTCCCGCTTCTTTCATTAATCCGTTATCAACTGTTTTAATATATACATTTACCTTTTAAGAGGAGGAAT`
Result block: criterion met

Query block: Moving on to `CGACATGTCCCGCTTCTTTCATTAATCCGTTAGAAACTGTTTTGCTATATACATCTACCTTTTAAGAGGAGGAAT`
Result block: criterion not met

Query block: Moving on to `CGACATGTCCCGCTTCTTTCATTAATCCGTTATCAACTGTTTTGCTATATATATTTACCTTTTAAGAGGAGGAAT`
Result block: criterion not met

---

- Tested on: Bacillus subtilis
- Assay Procedure: cleaved RNA product abundance (RNA/gDNA barcode ratio) relative to median wild-type variant (ratio to wild type); higher = more accumulation of the downstream cleavage product
- Test Settings: experiment (reporter, strain, medium): exp 2b: truncated aprE reporter, strain BJT200; cleavage site: cggR-gapA (positions -7 to +36 mutated)
cleaved RNA product abundance vs 0.2: at or above is 1.0, below is 0.0.

Look over these answered cases.
ACAGACGAAGGAGCCGCAAAAAAGTTGTTAAGGGATGAATAATCCCTCAATATAAATATCTCTCACTTATTTAAA ... 1.0
ACAGACGAAGGAGCCGCAAAGAAATTATTAAGGGATGAATAATCCCTCAAGATAAATATCTCTCACTTATTTAAA ... 0.0
ACAGACGAAGGAGCCGCAAAGAAGTTATTAAGGGATGAATACTGCCTCAATATAAATATCTCTCACTTATTTAAA ... 0.0
ACAGACGAAGGAGCCGCAAAGAAGTTATTAAGGGTTGAATAAACCCTCAATATAAATATCTCTCACTTATTTAAA ... 1.0
ACAGACGAAGGAGCCGCAAAGAAGATATTAAGGGATGAATAATCCCTAAATATAAATATCTCTCACTTATTTAAA ... 1.0

Query block: cleaved RNA product abundance >= 0.2 for `ACAGACGAAGGAGCCGCAAAGAAGTTATTAAGGGATGACTAATCCCTCATTATAAATATCTCTCACTTATTTAAA` ?
Result block: 0.0

// data source = the supplement of paper PMC11780869
